EXPERIMENTAL TARGET: recombinant carbonic anhydrase (SEQ ID NO: 4) from Bacillus sp. P203 (Alkalicoccobacillus plakortidis)
Sequence (A0ABT0XM38 entry or part of it): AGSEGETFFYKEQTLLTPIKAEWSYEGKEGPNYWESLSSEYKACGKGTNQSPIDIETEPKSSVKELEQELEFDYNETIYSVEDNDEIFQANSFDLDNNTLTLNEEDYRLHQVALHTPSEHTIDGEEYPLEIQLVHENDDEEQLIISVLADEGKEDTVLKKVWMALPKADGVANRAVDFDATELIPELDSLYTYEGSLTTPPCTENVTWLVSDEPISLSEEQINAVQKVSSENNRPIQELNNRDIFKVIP
EXPERIMENTAL SETUP: read-out: IC50, inhibition of recombinant carbonic anhydrase; purified recombinant enzyme from Bacillus sp. P203
MEASURE: IC50 (µM)

[N-]=[N+]=[N-] [azide] | 500
